These measurements were taken from paper PMC8887125.

molecular target: CPSF73 (Homo sapiens); construct: CPSF73 within the purified recombinant seven-subunit CPSF complex (mPSF + mCF); with CPSF subunits (CPSF100, symplekin, CPSF160, WDR33, CPSF30, hFip1) with CStF, CFIIm and RBBP6 (1-335); test: in vitro SV40 pre-mRNA cleavage assay with purified proteins, dose response by denaturing gel
result-type: IC50

Task item: Name the recorded IC50 for `CN1CCN(CCOc2c(Cl)cc(C(=O)N[C@@H](Cc3ccccc3)C(=O)O)c(O)c2Cl)CC1` .
Reply: ~350 nM
